target or system: T1, human vasopressin V1a receptor (hV1aR) (human, UniProt P37288 1-418)
T1 construct: vasopressin V1a receptor, human; in membrane preparations; source: HEK293, stably expressing; membrane preparations
T1 sequence (P37288 whole entry): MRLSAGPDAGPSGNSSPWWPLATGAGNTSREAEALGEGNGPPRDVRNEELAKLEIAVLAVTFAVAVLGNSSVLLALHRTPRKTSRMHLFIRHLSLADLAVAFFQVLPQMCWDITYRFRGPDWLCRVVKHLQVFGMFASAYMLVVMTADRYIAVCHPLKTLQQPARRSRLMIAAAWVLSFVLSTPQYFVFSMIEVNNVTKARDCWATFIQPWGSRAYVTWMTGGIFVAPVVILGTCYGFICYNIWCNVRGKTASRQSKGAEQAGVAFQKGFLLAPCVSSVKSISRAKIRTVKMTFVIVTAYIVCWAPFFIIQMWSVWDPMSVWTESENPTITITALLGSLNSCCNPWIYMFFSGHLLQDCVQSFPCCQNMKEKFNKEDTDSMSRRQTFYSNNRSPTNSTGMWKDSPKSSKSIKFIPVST
assay notes: radioligand binding; displacement of [3H]-OT or [3H]-VP from membrane preparations of HEK293 cells stably expressing the human receptor; dose-response curves in duplicates, at least three independent experiments; Ki >10 µM assigned where <25% of the radioligand was displaced at 10 µM
measurement parameters: one partner purified
Positions of bridges follow the written chain, without caps; N, C: chain ends. Non-standard residues stand in square brackets, D forms with d. Groups on a side chain read outwards from the residue. Primed or numbered codes have the meaning given here. No end group written: not given here. εdLys = D-Lys linked through its epsilon amine (k^ε); PEG5′ = PEG5 spacer, as named in the construct; Cy5s = Cy5s fluorophore, as named; Orn = NCCC[C@H](N)C(=O)O; Mpa = O=C(O)CCS
measured attribute: Ki (nM)
Lab book: enter the figure in nM, no units written.

Task: Looking for the measured Ki of [Mpa]YIQNCP[Orn]([PEG5′-εdLys-Cy5s])G (disulfide 1-6) [d(Orn)^8OT‐[PEG5‐k^ε‐Cy5s]^8] , can you help?
Result: 11

Task: Looking for the measured Ki of [Mpa]YIQNCP[Orn]G (disulfide 1-6) [d(Orn)^8OT] , can you help?
Result: 0.4
